Conditions: mouse, in vivo, iv
For each entry below, report its Vz: IV apparent volume of distribution during terminal phase value.
Quote the value and follow it with the unit of measurement.

INPUT: State the recorded Vz: IV apparent volume of distribution during terminal phase for this entry: COc1nc2ccc(C#N)cc2cc1C(c1cccc(C)c1)C(O)(CCN(C)C)c1cccnc1OC (stereo not shown)
OUTPUT: 6.6 L/kg

INPUT: COc1nc2ccc(Br)cc2cc1C(c1cccc2c1OCO2)C(O)(CCN(C)C)c1cccnc1C (stereo not shown) , same question.
OUTPUT: 21 L/kg

INPUT: Then COc1cc(C(O)(CCN(C)C)C(c2cc3cc(Br)ccc3nc2OC)c2ccnc(OC)c2OC)c(OC)nc1OC (stereo not shown) ?
OUTPUT: 12 L/kg

INPUT: Then this compound: COc1nc2ccc(Br)cc2cc1C(c1cccc(C)c1)C(O)(CCN(C)C)c1cccnc1C (stereo not shown)
OUTPUT: 33 L/kg

INPUT: Field entry: COc1cccc(C(c2cc3cc(C#N)ccc3nc2OC)C(O)(CCN(C)C)c2cc(C)nc(C)c2)c1F (stereo not shown)
OUTPUT: 53 L/kg

INPUT: Ok, now COc1cccc(C(c2cc3cc(Br)ccc3nc2OC)C(O)(CCN(C)C)c2ccc(C)nc2)c1F (stereo not shown)
OUTPUT: 10 L/kg

INPUT: // repeat for COc1cccc(C(c2cc3cc(Br)ccc3nc2OC)C(O)(CCN(C)C)c2cnc(C)cc2C)c1OC (stereo not shown) and report
OUTPUT: 23 L/kg

INPUT: Another compound to look at: COc1cc(C(O)(CCN(C)C)C(c2cc3cc(Br)ccc3nc2OC)c2ccnc(OC)c2OC)cnc1OC (stereo not shown)
OUTPUT: 6.0 L/kg

INPUT: Can you handle COc1cccc(C(c2cc3cc(C#N)ccc3nc2OC)C(O)(CCN(C)C)c2cc(C)nc(C)c2)c1OC (stereo not shown) next?
OUTPUT: 82 L/kg

INPUT: Let us now turn to COc1nc2ccc(Br)cc2cc1C(c1cccc2c1OCO2)C(O)(CCN(C)C)c1cccnc1OC (stereo not shown)
OUTPUT: 20 L/kg

INPUT: Field entry: CCOc1cc(C(O)(CCN(C)C)C(c2cc(OC)nc(OC)c2)c2cc3cc(Br)ccc3nc2OC)cc(OC(C)C)n1 (stereo not shown)
OUTPUT: 20 L/kg

INPUT: Try this compound next: COc1cccc(C(O)(CCN(C)C)C(c2cc3cc(Br)ccc3nc2OC)c2cccc3c2OCO3)n1 (stereo not shown)
OUTPUT: 10 L/kg

INPUT: Further, for COc1cccc(C(c2cc3cc(Br)ccc3nc2OC)C(O)(CCN(C)C)c2cc(C)cnc2C)c1OC (stereo not shown) ?
OUTPUT: 77 L/kg
